Biological target: horse serum BChE (Equus caballus, UniProt P81908)
Construct: horse serum BChE (EC 3.1.1.8); purchased Sigma-Aldrich Co; host or cells: horse serum
Sequence (P81908 whole entry): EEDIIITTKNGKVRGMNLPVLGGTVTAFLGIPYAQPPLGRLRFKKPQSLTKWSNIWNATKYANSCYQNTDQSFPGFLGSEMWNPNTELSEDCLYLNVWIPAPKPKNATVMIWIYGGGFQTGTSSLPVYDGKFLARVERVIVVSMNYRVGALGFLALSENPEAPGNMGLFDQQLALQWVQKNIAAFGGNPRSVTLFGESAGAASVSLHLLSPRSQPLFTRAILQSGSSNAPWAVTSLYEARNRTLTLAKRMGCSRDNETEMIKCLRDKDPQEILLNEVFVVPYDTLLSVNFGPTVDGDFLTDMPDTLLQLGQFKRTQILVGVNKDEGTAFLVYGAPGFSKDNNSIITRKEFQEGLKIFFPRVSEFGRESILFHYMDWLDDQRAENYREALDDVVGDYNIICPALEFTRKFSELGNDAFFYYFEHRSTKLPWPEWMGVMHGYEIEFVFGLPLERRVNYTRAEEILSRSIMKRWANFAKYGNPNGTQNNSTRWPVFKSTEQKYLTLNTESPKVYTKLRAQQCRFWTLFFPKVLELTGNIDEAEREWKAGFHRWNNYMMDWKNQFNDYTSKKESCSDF
Assay: Kinetic analysis of BChE inhibition (Dixon and Lineweaver−Burk plots)
Assay type: biochemical
Conditions: Dixon and Lineweaver−Burk plots
Description: The Ki was determined by interpretation of the Dixon plot, with the value of the x-axis intercept taken as −Ki. Dixon plots for BChE inhibition by pterosin derivatives. (2S,3R)-Pterosin C (A), (2R,3R)-pterosin C (B), and (2R)-pterosin B (C) were tested in the presence of substrate concentrations of 0.2 mM (●), 0.4 mM (○), and 0.8 mM (▼). Dixon plots for BChE inhibition by pteroside derivatives. […]
measured.attribute: Inhibition type BChE

Incoming: Please indicate recorded Inhibition type BChE of Cc1cc2c(c(C)c1CCOC1OC(CO)C(O)C(O)C1O)C(=O)C(C)(C)C2O [(3S)-Pteroside D, (3S)-pteroside D] measured with horse serum BChE (Equus caballus, UniProt P81908).
Outgoing: Mixed-type

Incoming: Output reported Inhibition type BChE of the compound Cc1cc2c(c(C)c1CCOC1OC(CO)C(O)C(O)C1O)C(=O)C(C)C2 [(2R)-Pteroside B, (2R)-pteroside B] on horse serum BChE (Equus caballus, UniProt P81908).
Outgoing: Mixed-type

Incoming: Print horse serum BChE (Equus caballus, UniProt P81908) Inhibition type BChE for "Cc1cc2c(c(C)c1CCO)C(=O)[C@H](C)C2" .
Outgoing: Noncompetitive

Incoming: Please tell me the measured Inhibition type BChE for "Cc1cc2c(c(C)c1CCO)C(=O)[C@H](C)[C@H]2O" ; system: horse serum BChE (Equus caballus, UniProt P81908).
Outgoing: Mixed-type

Incoming: Provide the reported Inhibition type BChE (system: horse serum BChE (Equus caballus, UniProt P81908)) for Cc1cc2c(c(C)c1CCOC1OC(CO)C(O)C(O)C1O)C(=O)C(C)C2O [(2R,3R)-Pteroside C, (2R,3R)-pteroside C]
Outgoing: Mixed-type

# input for lookup
Incoming: Under horse serum BChE (Equus caballus, UniProt P81908), report Inhibition type BChE for "Cc1cc2c(c(C)c1CCO)C(=O)[C@@H](C)[C@H]2O"
Outgoing: Noncompetitive
